Assay: clinical
Conditions: human, in vivo, iv
# MRT annotations
Write the number in h without appending the unit.

// below: answered molecules
O=C(NC1CCN(CCc2c[nH]c3ccccc23)CC1)c1ccccc1	4.1
O=C1c2c(O)ccc(O)c2C(=O)c2c(NCCNCCO)ccc(NCCNCCO)c21	25
NC(N)=Nc1nc(CSCCC(N)=NS(N)(=O)=O)cs1	3

Attention now turns to another entry.
Param item = CN(C)[C@@H]1C(O)=C(C(N)=O)C(=O)[C@@]2(O)C(O)=C3C(=O)c4c(O)ccc(Cl)c4[C@@H](O)[C@H]3C[C@@H]12 ; retrieve measured MRT.
17

---

Assay: clinical
Settings: human, in vivo, iv, CL
# clearance annotations
Your answer should be a number followed by the unit of measure.

// below: answered compounds
CC(=O)Nc1nnc(S(N)(=O)=O)s1 [ACETAZOLAMIDE]	0.65 mL/min/kg
Cc1cccc(Nc2ccncc2S(=O)(=O)NC(=O)NC(C)C)c1 [TORSEMIDE]	0.53 mL/min/kg
O=C(O)C1N=C(c2ccccc2)c2cc(Cl)ccc2NC1=O (centres undefined) [CLORAZEPIC ACID]	1.1 mL/min/kg

Param item = CN1CC[C@]23c4c5ccc(O)c4O[C@H]2[C@@H](O[C@@H]2O[C@H](C(=O)O)[C@@H](O)[C@H](O)[C@H]2O)C=C[C@H]3[C@H]1C5 [MORPHINE GLUCURONIDE] ; retrieve measured clearance.
2.2 mL/min/kg
